- System: KCL-22 (Chronic Myelogenous Leukemia)
- TEST_DESCRIPTION: Bliss excess, mean over the matrix (fraction); higher = more synergy;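 further: after 72 h of two-drug dosing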
RECORDED_METRIC: Bliss excess

Enter reported Bliss excess observed with KCL-22 (Chronic Myelogenous Leukemia) for COc1cccc(OCCCN)c1-c1cc(Nc2cnc(C#N)cn2)n[nH]1 [Prexasertib] + Cc1cc2ncnn2cc1Nc1ncc2c(n1)n(C1CCOCC1)c(=O)n2C [AZD7648] (first compound max 1 µM, 7x7, partner max 10 µM)
-0.0133

====

- System: MFM-223 (Breast Carcinoma)
- TEST_DESCRIPTION: Bliss excess, mean over the matrix (fraction); higher = more synergy
// label = Fulfilled if Bliss excess is not less than 0.003, otherwise Not fulfilled

Field: example entries. Status: answers known.
COc1cccc(OCCCN)c1-c1cc(Nc2cnc(C#N)cn2)n[nH]1 [Prexasertib] + CN(C)CCCOc1ccc(-c2ccc3ncc4c(c3c2)n(C2CCOCC2)c(=O)n4C)cn1 [AZD0156] (first compound max 1 µM, 7x7, partner max 1 µM); Not fulfilled
CN(CCO)CC[C@H](CSc1ccccc1)Nc1ccc(S(=O)(=O)NC(=O)c2ccc(N3CCC([C@@H](O)c4ccccc4-c4ccc(Cl)cc4)CC3)cc2)cc1S(=O)(=O)C(F)(F)F [AZD4320] + C1CN(CCC1(C(=O)N[C@@H](CCO)C2=CC=C(C=C2)Cl)N)C3=NC=NC4=C3C=CN4 [Capivasertib] (first compound max 1 µM, 7x7, partner max 3 µM); Not fulfilled
C=CCn1c(=O)c2cnc(Nc3ccc(N4CCN(C)CC4)cc3)nc2n1-c1cccc(C(C)(C)O)n1 [AZD1775] + C[C@@H]1COCCN1C2=NC(=NC(=C2)C3(CC3)[S@](=N)(=O)C)C4=C5C=CNC5=NC=C4 [AZD6738] (first compound max 1 µM, partner max 10 µM); Fulfilled
CC(=O)c1c(C)c2cnc(Nc3ccc(N4CCNCC4)cn3)nc2n(C2CCCC2)c1=O [Palbociclib] + CC1(C)CCC(CN2CCN(c3ccc(C(=O)NS(=O)(=O)c4ccc(NCC5CCOCC5)c([N+](=O)[O-])c4)c(Oc4cnc5[nH]ccc5c4)c3)CC2)=C(c2ccc(Cl)cc2)C1 [Venetoclax] (first compound max 10 µM, 7x7, partner max 1 µM); Fulfilled

# bool: Bliss excess of NC1(C(=O)N[C@@H](CCO)c2ccc(Cl)cc2)CCN(c2ncnc3[nH]ccc23)CC1 [Capivasertib] + COc1nnc2ccc(N3CCC(c4ccc(OCCN5CCN(C)C(=O)[C@H]5C)cc4)CC3)nn12 [AZD5153] (first compound max 10 µM, 7x7, partner max 1 µM) >= 0.003
Not fulfilled

Values were extracted from the supplement of paper PMC11061612.
